test-summary: Biodistribution in tumor of C57/BL6 mouse bearing B16 cells assessed as remaining drug level at 0.07 uM, iv after 6 hrs
Format: ADME, organism-based, C57Bl/6, Neoplasm
assay-context: read-out: Drug uptake
property-name: tissue uptake at 6 h, 0.07 µM (%ID/g)
Give the value, in units of %ID/g, as a plain number.

Please give the measured tissue uptake at 6 h, 0.07 µM for this compound: "CCN(CC)CCNC(=O)c1ccc(C(=O)N[C@@H](CC(C)C)C(=O)N[C@@H](CC(C)C)C(=O)N[C@H](C=O)CC(C)C)c([125I])c1.Cl" 1.2

====

test-summary: Ratio of biodistribution in tumor to blood in C57/BL6 mouse bearing mouse B16 cells
Format: ADME, organism-based, C57Bl/6
property-name: Kp

// Kp lookup, key: "CCN(CC)CCNC(=O)c1ccc(C(=O)N[C@@H](CC(C)C)C(=O)N[C@@H](CC(C)C)C(=O)N[C@H](C=O)CC(C)C)c([125I])c1.Cl" ≥ 1

Source listed as ChEMBL document CHEMBL1141594.
